B1: library; numbered along this chain (parent)
chain: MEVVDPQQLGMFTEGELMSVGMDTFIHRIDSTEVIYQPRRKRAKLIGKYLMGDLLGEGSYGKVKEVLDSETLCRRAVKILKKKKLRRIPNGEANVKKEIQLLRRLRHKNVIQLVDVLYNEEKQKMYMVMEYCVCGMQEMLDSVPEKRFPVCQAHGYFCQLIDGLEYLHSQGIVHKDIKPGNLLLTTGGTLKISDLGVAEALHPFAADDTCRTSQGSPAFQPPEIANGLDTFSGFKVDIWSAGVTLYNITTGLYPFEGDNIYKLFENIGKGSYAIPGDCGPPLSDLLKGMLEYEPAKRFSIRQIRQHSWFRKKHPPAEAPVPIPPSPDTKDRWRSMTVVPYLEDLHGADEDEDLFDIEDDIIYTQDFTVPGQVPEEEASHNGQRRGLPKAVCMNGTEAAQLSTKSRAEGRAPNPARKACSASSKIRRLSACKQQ

# Variants of: B1
# experiment: STK11 functional score (HeLa growth suppression), rescaled enrichment; synonymous median = 1, nonsense median = 0 (normalised score)
# details: with HeLa; variant type: missense
experimental_endpoint: STK11 functional score
I only need the number, thanks.

Task: Please report the recorded STK11 functional score for `V66H` .
Result: 1.37

Task: Request the reported STK11 functional score associated with `L164I`
Result: 1.16

Task: Give the measured STK11 functional score of `Q305C` .
Result: 1.27

Task: Param item = `S401W` ; retrieve measured STK11 functional score.
Result: 0.786

Task: Fill in: STK11 functional score of `K416Y` is ___
Result: 1.2

Task: Item under review: `D53P` . Reported STK11 functional score?
Result: 1.52

Task: Sample `S169I` — what was its STK11 functional score?
Result: 0.231

Task: Recorded STK11 functional score for `G394C` , please?
Result: 1.28

Task: Fill in: STK11 functional score of `E223V` is ___
Result: 0.469

Task: Entry under review: `P222I` . Reported STK11 functional score?
Result: 1.13

Task: Requested field: STK11 functional score. Item: `R304K`
Result: 1.31

Task: So what does the record say about STK11 functional score for `D350I` ?
Result: 1.25

Task: Endpoint output: STK11 functional score of `T24S` . Value?
Result: 1.15

Task: Reported STK11 functional score for `N181I` : what is it?
Result: -0.248

Task: Form field: reported STK11 functional score of `F366M`
Result: 1.48

Task: Quick one: STK11 functional score for `A417I` ?
Result: 1.51

Task: Dear colleague, I am looking for the recorded STK11 functional score of the following variant: `E351C`
Result: 1.06

Task: Returns the measured STK11 functional score for the input variant. Input: `R104L`
Result: 1.4

Task: Item `P280L` has what recorded STK11 functional score?
Result: 1.32

Task: // query STK11 functional score value for entry `A205L`
Result: 0.703

Task: Which STK11 functional score reading was recorded for the variant `I300F` ?
Result: 1.21

Task: For the variant shown here, `I361W` , give the reported STK11 functional score.
Result: 1.62
